Test system: NCI-H1048 cells
measurement.description: MTT proliferation assay, NCI-H1048;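 also: Dose-response in 96-well plates over 8 or 10 concentration points, with exposure spanning 3-4 cell doublings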
Format: cell-based
experimental.conditions: 5 days compound exposure, 1:3 serial dilution starting at 10 μM
quantity.measured: GI50 (µM)

smiles_str=CC(C)C[C@@H]1NC(=O)[C@@H](N(C)C(=O)[C@@H](NC(=O)[C@@H]2C[C@@H](F)CN2C(=O)C2(C(F)(F)F)CC(F)(F)C2)C2CC2)CC=CCCCCNC(=O)[C@H](Cc2cc(Cl)ccc2-c2cnn(CCO)c2)N(C)C1=O quantity_measured=GI50 measured=0.08
smiles_str=CC(C)C[C@@H]1NC(=O)[C@@H](N(C)C(=O)[C@@H](NC(=O)[C@@H]2C[C@@H](F)CN2C(=O)C2(C(F)(F)F)CC(F)(F)C2)C2CC2)CC=CCCCCN(C)C(=O)[C@H](Cc2cc(F)ccc2-c2cnn(C)c2)N(C)C1=O quantity_measured=GI50 measured=0.04

###

study.target: CyclinB1/CDK1 (Homo sapiens)
Construct: purchased Eurofins, discovery 14-450
measurement.description: Fluorescence Polarization (FP) competitive binding assay, Cyclin B1/Cdk1;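 also: fluorescence polarization read after equilibration at room temperature, with IC50 taken from serially diluted dose-response curves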
experimental.conditions: 10 nM Cyclin B1/Cdk1, 2 nM FAM probe; average of 2-3 independent experiments; read-out: Cyclin B FP IC50
pIC50: −log10 of the molar value. *1 amine or outer side, *2 acyl side, *3 side chain or, on linkers, in order; H or OH if unused. Where a SMILES comes first, the peptide text is derived from it. Bridges are numbered along the chain shown (N, C = ends). [ ]: non-standard residue; d: D form. The star is where a group is joined. NMePhe(2-(4-MorPh),5-Cl) = CN[C@@H](Cc1cc(Cl)ccc1-c1ccc(N2CCOCC2)cc1)C(=O)O; X128 = CC(C)C(=O)N1C2C=C(c3ccc(F)cc3C[C@@H](C(=O)[*:2])N(C)[*:1])CC1COC2; X119 = CC(=O)N1C2C=C(c3ccc(F)cc3C[C@@H](C(=O)[*:2])N(C)[*:1])CC1COC2; X84 = CC(=O)N1CCC(c2ccc(Cl)cc2C[C@@H](C(=O)[*:2])N(C)[*:1])CC1; NMehhhLys(Me) = CN([C@@H](CCCCCCCN(C)[*:3])C(=O)[*:2])[*:1]; cBuCO(3,3-F2-1-CF3) = O=C(C1(C(F)(F)F)CC(F)(F)C1)*; Pro(trans-4-F) = O=C(O)[C@@H]1C[C@@H](F)CN1; Gly(cPr) = N[C@H](C(=O)O)C1CC1
quantity.measured: pIC50

molecule=CC(C)C[C@@H]1NC(=O)[C@@H](N(C)C(=O)[C@@H](NC(=O)[C@@H]2C[C@@H](F)CN2C(=O)C2(C(F)(F)F)CC(F)(F)C2)C2CC2)CC=CCCCCN(C)C(=O)[C@H](Cc2cc(Cl)ccc2-c2cnn(C3CC3)c2)N(C)C1=O study_target="CyclinB1/CDK1 (Homo sapiens)" quantity_measured=pIC50 measured=7.70
molecule="CC(=O)N1CCC(c2ccc(Cl)cc2C[C@H]2C(=O)N(C)CCCCCCC[C@H](N(C)C(=O)[C@@H](NC(=O)[C@@H]3C[C@@H](F)CN3C(=O)C3(C(F)(F)F)CC(F)(F)C3)C3CC3)C(=O)N[C@@H](CC(C)C)C(=O)N2C)CC1 [Example 52] ({cBuCO(3,3-F2-1-CF3)}-[Pro(trans-4-F)][Gly(cPr)][NMehhhLys(Me)]L[X84]; lactam 3-C)" study_target="CyclinB1/CDK1 (Homo sapiens)" quantity_measured=pIC50 measured=7.70
molecule=CC(C)C[C@@H]1NC(=O)[C@@H](N(C)C(=O)[C@@H](NC(=O)[C@@H]2C[C@@H](F)CN2C(=O)C2(C(F)(F)F)CC(F)(F)C2)C2CC2)CC=CCCCCN(C)C(=O)[C@H](Cc2cc(Cl)ccc2Cl)N(C)C1=O study_target="CyclinB1/CDK1 (Homo sapiens)" quantity_measured=pIC50 measured=7.70
molecule="CC(C)C[C@@H]1NC(=O)[C@@H](N(C)C(=O)[C@@H](NC(=O)[C@@H]2C[C@@H](F)CN2C(=O)C2(C(F)(F)F)CC(F)(F)C2)C2CC2)CCCCCCCN(C)C(=O)[C@H](Cc2cc(F)ccc2C2=CC3COCC(C2)N3C(=O)C(C)C)N(C)C1=O (stereo partly drawn) [Example 151] ({cBuCO(3,3-F2-1-CF3)}-[Pro(trans-4-F)][Gly(cPr)][NMehhhLys(Me)]L[X128]; lactam 3-C)" study_target="CyclinB1/CDK1 (Homo sapiens)" quantity_measured=pIC50 measured=7.70
molecule="CC(C)C[C@@H]1NC(=O)[C@@H](N(C)C(=O)[C@H](CCC(=O)N(C)C)NC(=O)[C@@H]2C[C@@H](F)CN2C(=O)C2(C(F)(F)F)CC(F)(F)C2)CCCCCCCN(C)C(=O)[C@H](Cc2cc(Cl)ccc2-c2ccc(N3CCOCC3)cc2)N(C)C1=O [Example 419] ({cBuCO(3,3-F2-1-CF3)}-[Pro(trans-4-F)]E(NMe2)[NMehhhLys(Me)]L[NMePhe(2-(4-MorPh),5-Cl)]; lactam 3-C)" study_target="CyclinB1/CDK1 (Homo sapiens)" quantity_measured=pIC50 measured=7.70
molecule="CC(=O)N1C2C=C(c3ccc(F)cc3C[C@H]3C(=O)N(C)CCCCCCC[C@H](N(C)C(=O)[C@@H](NC(=O)[C@@H]4C[C@@H](F)CN4C(=O)C4(C(F)(F)F)CC(F)(F)C4)C4CC4)C(=O)N[C@@H](CC(C)C)C(=O)N3C)CC1COC2 (stereo partly drawn) [Example 124] ({cBuCO(3,3-F2-1-CF3)}-[Pro(trans-4-F)][Gly(cPr)][NMehhhLys(Me)]L[X119]; lactam 3-C)" study_target="CyclinB1/CDK1 (Homo sapiens)" quantity_measured=pIC50 measured=7.70
molecule=COCCn1cc(-c2ccc(Cl)cc2C[C@H]2C(=O)N(C)CCCCC=CC[C@H](N(C)C(=O)[C@@H](NC(=O)[C@@H]3C[C@@H](F)CN3C(=O)C3(C(F)(F)F)CC(F)(F)C3)C3CC3)C(=O)N[C@@H](CC(C)C)C(=O)N2C)cn1 study_target="CyclinB1/CDK1 (Homo sapiens)" quantity_measured=pIC50 measured=7.70
